Reported Activity values follow for various compounds
# Test system: Rattus norvegicus
# assay.overview: Hypotensive activity in normotensive Wistar rat assessed as diastolic blood pressure at 1 mg/kg, iv measured after 20 mins (reference value: 88.4 to 122.7 mmHg)
# Format: functional
attribute.measured: Activity

[[record]]
compound = "COc1ccccc1OCCNCC(O)COc1cccc2c(=O)c3ccccc3oc12.Cl (racemic)"
target_entity = "Rattus norvegicus"
attribute_measured = "Activity"
reported = "84 mmHg"

[[record]]
compound = "COc1ccccc1CCNCC(O)COc1cccc2c(=O)c3ccccc3oc12.Cl (racemic)"
target_entity = "Rattus norvegicus"
attribute_measured = "Activity"
reported = "111.5 mmHg"

[[record]]
compound = "Cl.O=c1c2ccccc2oc2c(OCC(O)CN3CCN(c4ccccn4)CC3)cccc12 (racemic)"
target_entity = "Rattus norvegicus"
attribute_measured = "Activity"
reported = "133 mmHg"

[[record]]
compound = "CC(C)(C)NCC(O)COc1cccc2c(=O)c3ccccc3oc12.Cl (racemic)"
target_entity = "Rattus norvegicus"
attribute_measured = "Activity"
reported = "103.7 mmHg"

[[record]]
compound = "Cl.O=c1c2ccccc2oc2cc(OCC(O)CN3CCN(c4ccccn4)CC3)ccc12 (racemic)"
target_entity = "Rattus norvegicus"
attribute_measured = "Activity"
reported = "103.8 mmHg"


---

# Test system: Rattus norvegicus
# assay.overview: Cardiotoxicity in Wistar rat assessed as effect on QRS interval time at 5 mg/kg, iv measured after 5 mins (reference value: 16.7 to 20.7 ms)
# Assay type: toxicity, organism-based
# condition.notes: in vivo
Items are presented alongside their recorded Time.
attribute.measured: Time (ms)

[[record]]
molecule = "Cl.O=c1c2ccccc2oc2c(OCC(O)CN3CCN(c4ccccn4)CC3)cccc12 (racemic)"
attribute_measured = "Time"
reported = 18

[[record]]
molecule = "Cc1cccc2c(=O)c3ccc(OCC(O)CNC(C)(C)C)cc3oc12.Cl (racemic)"
attribute_measured = "Time"
reported = 18.2

[[record]]
molecule = "COc1ccccc1CNCC(O)COc1cccc2c(=O)c3ccccc3oc12.Cl (racemic)"
attribute_measured = "Time"
reported = 22.7

[[record]]
molecule = "Cl.O=c1c2ccccc2oc2cc(OCC(O)CN3CCN(c4ccccn4)CC3)ccc12 (racemic)"
attribute_measured = "Time"
reported = 20

[[record]]
molecule = "COc1ccccc1CCNCC(O)COc1cccc2c(=O)c3ccccc3oc12.Cl (racemic)"
attribute_measured = "Time"
reported = 19

[[record]]
molecule = "COc1ccccc1OCCNCC(O)COc1cccc2c(=O)c3ccccc3oc12.Cl (racemic)"
attribute_measured = "Time"
reported = 19.3

[[record]]
molecule = "COc1ccc(CCNCC(O)COc2cccc3c(=O)c4ccccc4oc23)cc1OC.Cl (racemic)"
attribute_measured = "Time"
reported = 22.7


---

# System: Rattus norvegicus
# assay.overview: Cardiotoxicity in Wistar rat assessed as effect on QRS interval time at 5 mg/kg, iv measured after 15 mins (reference value: 16.7 to 20.7 ms)
# Type: toxicity, organism-based
# condition.notes: in vivo, 0.25 h
attribute.measured: Time (ms)

[[record]]
compound = "COc1ccc(CCNCC(O)COc2cccc3c(=O)c4ccccc4oc23)cc1OC.Cl (racemic)"
attribute_measured = "Time"
reported = 21.3

[[record]]
compound = "Cl.O=c1c2ccccc2oc2cc(OCC(O)CN3CCN(c4ccccn4)CC3)ccc12 (racemic)"
attribute_measured = "Time"
reported = 21.3

[[record]]
compound = "Cc1cccc2c(=O)c3ccc(OCC(O)CNC(C)(C)C)cc3oc12.Cl (racemic)"
attribute_measured = "Time"
reported = 18.5

[[record]]
compound = "COc1ccccc1OCCNCC(O)COc1cccc2c(=O)c3ccccc3oc12.Cl (racemic)"
attribute_measured = "Time"
reported = 18.7

[[record]]
compound = "Cl.O=c1c2ccccc2oc2c(OCC(O)CN3CCN(c4ccccn4)CC3)cccc12 (racemic)"
attribute_measured = "Time"
reported = 19.2

[[record]]
compound = "COc1ccccc1CCNCC(O)COc1cccc2c(=O)c3ccccc3oc12.Cl (racemic)"
attribute_measured = "Time"
reported = 17

[[record]]
compound = "COc1ccccc1CNCC(O)COc1cccc2c(=O)c3ccccc3oc12.Cl (racemic)"
attribute_measured = "Time"
reported = 21.3

